- tgt: T1, human MSLN-hFc recombinant protein (human, UniProt Q13421 296-580)
- T1 construct: Captured by an anti-human IgG antibody on the chip; also called human MSLN protein; Acro MSN-H5253
- assay-remarks: SPR (Biacore 8K), MSLN-hFc captured, antibody injected
koff overview
Record the value in s⁻¹, omitting the unit from your answer.

Example entries and their recorded answers appear below.
>>> endpoint_value("F2.39.3-H9 (scFv, not shown: small tags and cut ends, also called S009-F2.39.3 humanized antibody VH3 + VL1) scFv: EVQLVQSGAEVKKPGASVKVSCKASGYTFTNYWMHWVRQAPGQGLEWMGNINPSSGDSYYNERFMSRVTMTVDKSTSTAYMELSSLRSEDTAVYYCARSGGLWLAFWGPGTLVTVSSGGGGSGGGGSGGGGSDIVMTQSPDSLAVSLGERATINCKSSQTLLNSVSQNNYLAWYQQKPGQSPKLLIYFASTRESGVPDRFSGSGSGTDFTLTISSLQAEDVAVYYCQQHYRTPYTFGGGTKVEIK")
"3.19e-05"
>>> endpoint_value("F3.80.22-H5 (scFv, not shown: small tags and cut ends, also called S009-F3.80.22 humanized antibody VL1a + VH1) scFv: DIVMTQTPLSLPVTPGEPASISCRSSQSLEHNDGNTYLHWFLQKPGQSPQLLIYKVSNRFSGVPDRFSGSGSGTDFTLKISRVEAEDVGVYYCSQSTHVPFTFGQGTKLEIKGGGGSGGGGSGGGGSEVQLVQSGAEVKKPGATVKISCKVSGYTFTDYEIHWVQQAPGKGLEWMGAFDPEIGGSAYNQKFKDRVTITADKSTDTAYMELSSLRSEDTAVYYCTDYYGSSSGYFDVWGQGTTVTVSS")
0.000565
>>> endpoint_value("F2.39.3-H2 (scFv, not shown: small tags and cut ends, also called S009-F2.39.3 humanized antibody VH1 + VL2) scFv: EVQLVQSGAEVKKPGASVKVSCKASGYTFTNYWMHWVRQAPGQGLEWMGNINPSSGDSYYNERFMSRVTMTVDKSTSTVYMELSSLRSEDTAVYYCARSGGLWLAFWGQGTLVTVSSGGGGSGGGGSGGGGSDIVMTQSPDSLAVSLGERATINCKSSQTLLNSVSQNNYLAWYQQKPGQSPTLLIYFASTRESGVPDRFSGSGSGTDFTLTISSLQAEDVAVYYCQQHYRTPYTFGGGTKVEIK")
"3.39e-05"

# koff of F7.44.20-H5 (scFv, not shown: small tags and cut ends, also called S009-F7.44.20 humanized antibody VH1a + VL1) scFv: EVQLVQSGAEVKKPGASVKVSCKASGYTFTDYNMDWVRQAPGQGLEWMGDINPSTGGTIYNQKFQGRVTMTEDKSTSTVYMELSSLRSEDTAVYYCARRRIGTGYFDVWGQGTTVTVSSGGGGSGGGGSGGGGSEIVLTQSPDFQSVTPKEKVTITCSASSSVISSYLSWYQQKPDQSPKLLIYRTSNLASGVPSRFSGSGSGTDFTLTINSLEAEDAATYYCHQWSSFPYTFGGGTKVEIK = 0.000313

# koff of F7.33.24-H5 (scFv, not shown: small tags and cut ends, also called S009-F7.33.24 humanized antibody VH1a + VL2) scFv: EVQLVQSGAEVKKPGASVKVSCKASGYTFTSYWMHWVRQAPGQRLEWMGNVNPSSGGSNYNEKFKNRVTITVDKSASTAYMELSSLRSEDTAVYYCAPHYIGSRPGFAYWGQGTLVTVSSGGGGSGGGGSGGGGSDIVMTQTPLSLSVTPGQPASISCKASQNVGTNIAWYLQKPGQSPQALIYSASYRYSGVPDRFSGSGSGTDFTLKISRVEAEDVGVYYCQQYNSYPLTFGGGTKVEIK = 0.000435
